- SYSTEM_NAME: T1, cynomolgus CX3CR1 (cynomolgus monkey (Macaca fascicularis), UniProt P49238 1-355 (human entry))
- T1 construct: Overexpressed on CHO K1 cells; also called cyno CX3CR1; cyCX3CR1
- T1 chain: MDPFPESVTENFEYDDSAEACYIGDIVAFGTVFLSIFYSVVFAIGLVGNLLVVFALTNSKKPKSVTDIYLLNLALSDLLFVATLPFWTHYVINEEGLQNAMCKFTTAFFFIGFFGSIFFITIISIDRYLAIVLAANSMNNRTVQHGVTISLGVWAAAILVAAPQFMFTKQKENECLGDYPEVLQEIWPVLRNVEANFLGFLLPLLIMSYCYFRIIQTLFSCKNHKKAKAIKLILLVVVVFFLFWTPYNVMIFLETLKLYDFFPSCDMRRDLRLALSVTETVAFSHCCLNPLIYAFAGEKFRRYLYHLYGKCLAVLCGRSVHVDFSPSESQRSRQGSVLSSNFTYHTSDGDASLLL
- TEST: flow cytometry on CHO K1 cyCX3CR1 cells, 30 uM HSA
EXPERIMENTAL_ENDPOINT: top
Could you keep your reply to the number by itself?

Consider the reported top for these binders:
1. A041600042 (VHH, Trivalent ISVD construct (two anti-CX3CR1 ISVDs, one anti-albumin ISVD), C-terminal alanine included in the entry; also called 66B02_SO (E1D)-20GS-66B02_SO-20GS-ALB23002-A) DVQLVESGGGSVQPGGSLRLSCAASGSIFSSTAMAWYRQAPGKRRDLVAAINTVGVTKYADSVKGRFTISRDNAKNTVYLQMNSLRPEDTALYYCTSDPRRGWDTRYWGQGTLVTVSSGGGGSGGGGSGGGGSGGGGSEVQLVESGGGSVQPGGSLRLSCAASGSIFSSTAMAWYRQAPGKRRDLVAAINTVGVTKYADSVKGRFTISRDNAKNTVYLQMNSLRPEDTALYYCTSDPRRGWDTRYWGQGTLVTVSSGGGGSGGGGSGGGGSGGGGSEVQLVESGGGVVQPGGSLRLSCAASGFTFRSFGMSWVRQAPGKGPEWVSSISGSGSDTLYADSVKGRFTISRDNSKNTLYLQMNSLRPEDTALYYCTIGGSLSRSSQGTLVTVSSA ... 373000
2. A041600010 (VHH, Trivalent ISVD construct (two anti-CX3CR1 ISVDs, one anti-albumin ISVD); also called 66B02_SO (E1D)-9GS-ALB23002-9GS-66B02_SO-A) DVQLVESGGGSVQPGGSLRLSCAASGSIFSSTAMAWYRQAPGKRRDLVAAINTVGVTKYADSVKGRFTISRDNAKNTVYLQMNSLRPEDTALYYCTSDPRRGWDTRYWGQGTLVTVSSGGGGSGGGSEVQLVESGGGVVQPGGSLRLSCAASGFTFRSFGMSWVRQAPGKGPEWVSSISGSGSDTLYADSVKGRFTISRDNSKNTLYLQMNSLRPEDTALYYCTIGGSLSRSSQGTLVTVSSGGGGSGGGSEVQLVESGGGSVQPGGSLRLSCAASGSIFSSTAMAWYRQAPGKRRDLVAAINTVGVTKYADSVKGRFTISRDNAKNTVYLQMNSLRPEDTALYYCTSDPRRGWDTRYWGQGTLVTVSSA ... 214000

Turning now to a further record.
Look up and state reported top for A041600026 (VHH, Trivalent ISVD construct; also called 66B02_SO (E1D)-20GS-ALB23002-20GS-66B02_SO-A) DVQLVESGGGSVQPGGSLRLSCAASGSIFSSTAMAWYRQAPGKRRDLVAAINTVGVTKYADSVKGRFTISRDNAKNTVYLQMNSLRPEDTALYYCTSDPRRGWDTRYWGQGTLVTVSSGGGGSGGGGSGGGGSGGGGSEVQLVESGGGVVQPGGSLRLSCAASGFTFRSFGMSWVRQAPGKGPEWVSSISGSGSDTLYADSVKGRFTISRDNSKNTLYLQMNSLRPEDTALYYCTIGGSLSRSSQGTLVTVSSGGGGSGGGGSGGGGSGGGGSEVQLVESGGGSVQPGGSLRLSCAASGSIFSSTAMAWYRQAPGKRRDLVAAINTVGVTKYADSVKGRFTISRDNAKNTVYLQMNSLRPEDTALYYCTSDPRRGWDTRYWGQGTLVTVSSA
290000
